Recorded SGCB cell-surface expression functional score (log10) by entry
B1: library; numbered along this chain (parent)
chain: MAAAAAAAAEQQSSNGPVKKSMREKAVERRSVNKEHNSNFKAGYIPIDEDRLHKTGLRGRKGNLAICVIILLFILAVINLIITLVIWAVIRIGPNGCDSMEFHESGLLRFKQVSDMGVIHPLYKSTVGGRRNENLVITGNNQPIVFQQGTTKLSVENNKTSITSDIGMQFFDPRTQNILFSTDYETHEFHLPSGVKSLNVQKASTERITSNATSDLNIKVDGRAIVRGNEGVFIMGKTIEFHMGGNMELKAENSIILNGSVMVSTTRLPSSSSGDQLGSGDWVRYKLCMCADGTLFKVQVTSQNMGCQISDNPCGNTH

variants of: B1; test: SGCB cell-surface expression functional score (HA stain, bin4 vs bin1, normalised to synonymous) (log10 ratio); higher = more cell-surface SGCB (functional)
Reply briefly: the number, and no unit.

Would you please look over these solved cases?
{"VARIANT": "D292P", "VALUE MEASURED": -0.16}
{"VARIANT": "T182W", "VALUE MEASURED": -1.65}
{"VARIANT": "L268H", "VALUE MEASURED": 0}
{"VARIANT": "S264I", "VALUE MEASURED": 0.34}

Ask: What SGCB cell-surface expression functional score (log10) value was documented for this variant, E248K ?
Result: 0.73

Ask: Same question for Q142W please.
Result: 0.21
